Data origin: patent US10174013B2

MEASUREMENT TARGET: DYRK1 (Homo sapiens (Human))
TEST PROTOCOL: ADP-Glo Kinase Assay, DYRK1
Type: biochemical
DETAILS: 1 μM compound; read-out: DYRK1A % INH (1 μM)
Counter-ions that a name gives are not always drawn.
READOUT LABEL: inhibition at 1 µM (%)
Numeric only. Scale: %

Consider the worked cases shown below.
- COMPOUND: "CCn1c(N2CC[C@H](N)C2)nc2c(C#N)c(Br)c(Br)cc21 [Example 1DR]"
  inhibition at 1 µM (%): 65
- COMPOUND: "CC(C)n1c(NC2CCCNC2)nc2c(C#N)c(Br)c(Br)cc21 (centres unmarked) [Example 1BT]"
  inhibition at 1 µM (%): 22
- COMPOUND: "CCn1c(NC2CCCCC2N)nc2c([N+](=O)[O-])c(Br)c(Br)cc21 (centres unmarked) [Example 22L]"
  inhibition at 1 µM (%): 17
- COMPOUND: "CC(C)n1c(N2CCC(N)CC2)nc2c(C#N)c(Br)c(Br)cc21 [Example 1DT]"
  inhibition at 1 µM (%): 34
- COMPOUND: "C#CCn1c(N2CCNCC2)nc2c([N+](=O)[O-])c(Br)c(Br)cc21 [Example 2B, hydrochloride]"
  inhibition at 1 µM (%): 61
- COMPOUND: "CC(O)Cn1c(N2CCNCC2)nc2c([N+](=O)[O-])c(Br)c(Br)cc21 (centres unmarked) [Example 1BS]"
  inhibition at 1 µM (%): 66

Input: Note down inhibition at 1 µM recorded for CC(C)n1c(NCC(O)CN)nc2c([N+](=O)[O-])c(Br)c(Br)cc21 (centres unmarked) [Example 1W]
Output: 40

###

Listed below: Flt3wt % INH (1 μM) values for each entry.
MEASUREMENT TARGET: FLT3wt (Homo sapiens (Human))
Sequence (P36888 27-993): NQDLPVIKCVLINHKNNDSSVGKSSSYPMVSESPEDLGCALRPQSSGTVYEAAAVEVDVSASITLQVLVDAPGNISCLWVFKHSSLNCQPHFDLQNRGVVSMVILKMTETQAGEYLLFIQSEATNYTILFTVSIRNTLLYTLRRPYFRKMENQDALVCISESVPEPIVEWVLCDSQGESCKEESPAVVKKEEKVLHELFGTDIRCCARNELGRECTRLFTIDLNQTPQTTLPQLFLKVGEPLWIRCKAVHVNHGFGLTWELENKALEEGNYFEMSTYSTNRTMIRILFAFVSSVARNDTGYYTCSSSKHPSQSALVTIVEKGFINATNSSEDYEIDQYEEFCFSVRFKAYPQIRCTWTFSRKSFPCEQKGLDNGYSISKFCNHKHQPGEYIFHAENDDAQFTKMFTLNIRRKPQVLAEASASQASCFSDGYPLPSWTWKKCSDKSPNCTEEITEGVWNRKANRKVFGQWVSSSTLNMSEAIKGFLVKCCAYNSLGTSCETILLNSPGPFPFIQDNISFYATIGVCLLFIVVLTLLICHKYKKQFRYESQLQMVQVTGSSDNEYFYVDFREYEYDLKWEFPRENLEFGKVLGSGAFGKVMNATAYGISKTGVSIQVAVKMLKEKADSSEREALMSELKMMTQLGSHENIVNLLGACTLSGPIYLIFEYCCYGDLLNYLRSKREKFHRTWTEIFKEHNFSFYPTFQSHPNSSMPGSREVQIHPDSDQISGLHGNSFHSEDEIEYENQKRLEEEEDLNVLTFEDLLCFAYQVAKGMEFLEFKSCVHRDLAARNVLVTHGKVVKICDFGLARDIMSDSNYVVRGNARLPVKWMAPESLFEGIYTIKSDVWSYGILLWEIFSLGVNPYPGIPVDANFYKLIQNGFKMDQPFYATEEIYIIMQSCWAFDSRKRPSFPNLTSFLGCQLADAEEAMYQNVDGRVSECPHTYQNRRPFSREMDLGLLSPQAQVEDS
TEST PROTOCOL: ADP-Glo Kinase Assay, Flt3 wt
Format: biochemical
DETAILS: 1 μM compound
Numeric only. Scale: %

Consider the worked cases shown below.
- COMPOUND: "CCn1c(NC2CCC(N)CC2)nc2c([N+](=O)[O-])c(Br)c(Br)cc21 (centres unmarked) [Example 1DU]"
  MEASUREMENT TARGET: "FLT3wt (Homo sapiens (Human))"
  Flt3wt % INH (1 μM) (%): 12
- COMPOUND: "CCCn1c(N2CC[C@@H](N)C2)nc2c([N+](=O)[O-])c(Br)c(Br)cc21 [Example 1CM]"
  MEASUREMENT TARGET: "FLT3wt (Homo sapiens (Human))"
  Flt3wt % INH (1 μM) (%): 26
- COMPOUND: "CC(C)n1c(N2CCNC[C@H]2C)nc2c([N+](=O)[O-])c(Br)c(Br)cc21 [Example 1AO]"
  MEASUREMENT TARGET: "FLT3wt (Homo sapiens (Human))"
  Flt3wt % INH (1 μM) (%): 26
- COMPOUND: "CCCn1c(N2CCNCC2)nc2c([N+](=O)[O-])c(Br)c(Br)cc21 [Example 1M]"
  MEASUREMENT TARGET: "FLT3wt (Homo sapiens (Human))"
  Flt3wt % INH (1 μM) (%): 46

Input: Note down Flt3wt % INH (1 μM) recorded for CC(C)n1c(N2CC[C@@H](N)C2)nc2c([N+](=O)[O-])c(Br)c(Br)cc21 [Example 1AY]
Output: 60

Input: Note down Flt3wt % INH (1 μM) recorded for CC(C)n1c(N[C@H]2CNC[C@@H]2O)nc2c([N+](=O)[O-])c(Br)c(Br)cc21.Cl [Example 1CE]
Output: 12

Input: Note down Flt3wt % INH (1 μM) recorded for CC(C)n1c(N2CCC[C@H](N)C2)nc2c([N+](=O)[O-])c(Br)c(Br)cc21 [Example 1AP]
Output: 56

Input: Note down Flt3wt % INH (1 μM) recorded for CCn1c(N2CCC[C@H](N)C2)nc2c([N+](=O)[O-])c(Br)c(Br)cc21 [Example 1AH]
Output: 9

Input: Note down Flt3wt % INH (1 μM) recorded for CCn1c(N[C@H]2CCCNC2)nc2c([N+](=O)[O-])c(Br)c(Br)cc21 [Example 1AA]
Output: 11

Input: Note down Flt3wt % INH (1 μM) recorded for COCCn1c(N2CCNCC2)nc2c([N+](=O)[O-])c(Br)c(Br)cc21 [Example 1BB]
Output: 33

Input: Note down Flt3wt % INH (1 μM) recorded for Cl.NC1CCCN(c2nc3c([N+](=O)[O-])c(Br)c(Br)cc3n2CC2CC2)C1 (centres unmarked) [Example 1AV]
Output: 37

Input: Note down Flt3wt % INH (1 μM) recorded for CCCn1c(NCCCN)nc2c([N+](=O)[O-])c(Br)c(Br)cc21 [Example 1P]
Output: 37

Input: Note down Flt3wt % INH (1 μM) recorded for CCn1c(N2CCC[C@H](N)C2)nc2c([N+](=O)[O-])c(Cl)c(Cl)cc21 [Example 1CT]
Output: 7
